- assayName: Pharmacokinetic experiment in rats after gavage
- Format: in vivo
- protocolConditions: rat, blood, po; male SD rats, gavage 2 mg·kg^−1; read-out: total area under the mean blood drug concentration-time curve AUC0-∞
- Procedure: After 6 healthy male SD rats were fasted and drank water freely for 12 h, the rats was administered by gavage with the potassium salt crystal form B prepared in Embodiment 1 at 2 mg·kg^−1, and blood was taken from the Bulbus oculi venous plexus at 0.2 h, 0.5 h, 1 h, 1.5 h, 2 h, 4 h, 6 h and 8 h after administration. […]
outcomeMeasure: AUC(0-inf)

*Q* Name the recorded AUC(0-inf) of the item CCCCOC(=O)[N-]S(=O)(=O)c1cccc(-c2nc3c(CCC)nn(C)c3c(=O)[nH]2)c1.[K+] [potassium salt crystal form B] in your answer.
*A* 0.65 µg·h/mL
